Tested on: 422866-222-R5-J1-PDC spheroids with HUVEC/MSC, viability
test details: Anticancer human tumor 422866-222-R5-J1-PDC patient-derived pancreatic adenocarcinoma cell line growth inhibition [GQUAD]
measurement context: curve of first compound; second compound 0.0316 µM
From the text: DNA G-quadruplex Stabilizer Agents in Combinations in Complex Spheroids A high-throughput screen of multi-cell type tumor spheroids was designed to identify active combinations of DNA G-quadruplex stabilizer agents and targeted small molecules. […] Compounds. […] If the clinical Cmax for an agent had not been determined, the highest concentration tested was 10 microM. […]
So I've got a bunch of compounds here, and I need their IC50 values.

1) Cc1[nH]c2ccccc2c1CCNCc1ccc(/C=C/C(=O)NO)cc1 + CN(C)c1ccc(Nc2c3ccc(NC(=O)CCN4CCCC4)cc3nc3cc(NC(=O)CCN4CCCC4)ccc23)cc1 | > 316 nM

Items follow; give IC50 for each.
1. Cc1[nH]c2ccccc2c1CCNCc1ccc(/C=C/C(=O)NO)cc1 + Cc1cnc(CNC(=O)c2c(=O)c3ccc(N4CCCN(C)CC4)nc3n3c2sc2ccccc23)cn1
2. CC(=O)O[C@H]1C(=O)[C@@]2(C)[C@H]([C@H](OC(=O)c3ccccc3)[C@]3(O)C[C@H](OC(=O)[C@H](O)[C@@H](NC(=O)c4ccccc4)c4ccccc4)C(C)=C1C3(C)C)[C@]1(OC(C)=O)CO[C@@H]1C[C@@H]2O + Cc1[nH]c2ccc(F)cc2c1-c1nc2c3cccnc3c3ncccc3c2[nH]1
3. COc1ncnc(C2CC2)c1-c1ncc2cnn(Cc3ccc(-c4nc(C(F)(F)F)cn4C(C)C)cc3)c2n1 + CN(C)c1ccc(Nc2c3ccc(NC(=O)CCN4CCCC4)cc3nc3cc(NC(=O)CCN4CCCC4)ccc23)cc1
4. CC1COCCN1c1cc(C2(S(C)(=N)=O)CC2)nc(-c2ccnc3[nH]ccc23)n1 (centres undefined) + CN(C)c1ccc(Nc2c3ccc(NC(=O)CCN4CCCC4)cc3nc3cc(NC(=O)CCN4CCCC4)ccc23)cc1
5. CC(C)(O)C1CCC(Nc2ccc3ncc(-c4cccc(C(F)(F)F)c4)n3n2)CC1 (centres undefined) + Cc1cnc(CNC(=O)c2c(=O)c3ccc(N4CCCN(C)CC4)nc3n3c2sc2ccccc23)cn1
6. CCCS(=O)(=O)Nc1ccc(F)c(C(=O)c2c[nH]c3ncc(-c4ccc(Cl)cc4)cc23)c1F + Cc1[nH]c2ccc(F)cc2c1-c1nc2c3cccnc3c3ncccc3c2[nH]1
7. Cc1cccc(N(C)C(=O)C2C(O)CCN2c2nc(C)cc(C(F)(F)F)c2C#N)c1 (centres undefined) + CN(C)c1ccc(Nc2c3ccc(NC(=O)CCN4CCCC4)cc3nc3cc(NC(=O)CCN4CCCC4)ccc23)cc1
8. CC(C)n1c(=O)n(C)c2cnc3cc(F)c(-c4ccc(OCCCN5CCCCC5)nc4)cc3c21 + Cc1cnc(CNC(=O)c2c(=O)c3ccc(N4CCCN(C)CC4)nc3n3c2sc2ccccc23)cn1

Completion:
["> 316 nM", "671 nM", "> 10000 nM", "3570 nM", "1440 nM", "559 nM", "> 10000 nM", "> 10000 nM"]

---

Test system: 422866-222-R5-J1-PDC spheroids with HUVEC/MSC, viability
test details: Anticancer human tumor 422866-222-R5-J1-PDC cell line growth inhibition [GQUAD];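 further: spheroids exposed to compounds for seven days before reading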
measurement context: curve of first compound; second compound 3.16 µM
pIC50: −log10 of the molar value.
result type: pIC50

Guide cases for pIC50, answers given:
1. Cc1[nH]c2ccccc2c1CCNCc1ccc(/C=C/C(=O)NO)cc1 + CN(C)c1ccc(Nc2c3ccc(NC(=O)CCN4CCCC4)cc3nc3cc(NC(=O)CCN4CCCC4)ccc23)cc1 | < 6.50
2. COc1cc(C2c3cc4c(cc3C(OC3OC5COC(C)OC5C(O)C3O)C3COC(=O)C23)OCO4)cc(OC)c1O (stereo not drawn) + Cc1cnc(CNC(=O)c2c(=O)c3ccc(N4CCCN(C)CC4)nc3n3c2sc2ccccc23)cn1 | < 5.00

Prompt: Test system 422866-222-R5-J1-PDC spheroids with HUVEC/MSC, viability; read-out pIC50; what value for O=C(NO)c1cnc(N2CCN(S(=O)(=O)c3ccc4ccccc4c3)CC2)nc1 + Cc1[nH]c2ccc(F)cc2c1-c1nc2c3cccnc3c3ncccc3c2[nH]1 ?
Completion: < 5.00
